FYI, the data here is from ChEMBL document CHEMBL1137210.

Tested on: Mus musculus
measurement protocol: No. of mice survived infected intraperitoneally with methicillin-resistant Staphylococcus aureus after 5 days of treatment at a dose of 25 mg/kg (Total mice tested 5)
Type: functional
test parameters: route intravenous
The following compounds are listed with their measured Efficacy values.
// response body must contain only the number

Request: Need Efficacy of Cn1cc(NC(=O)c2cc3ccccc3cn2)cc1C(=O)Nc1ccc(C(=O)Nc2cn(C)c(C(=O)NCCN3CCN(CCO)CC3)n2)cc1 , thanks.
Response: 5

Request: Also Cn1cc(NC(=O)c2ccc(NC(=O)c3cc(NC(=O)c4cc5ccccc5cn4)cn3C)cc2)cc1C(=O)NCCN1CCOCC1 ?
Response: 5

Request: Also COCCN(CCNC(=O)c1nc(NC(=O)c2ccc(NC(=O)c3cc(NC(=O)c4cc5ccccc5cn4)cn3C)cc2)cn1C)CCOC ?
Response: 0

Request: Also COC1CCN(CCNC(=O)c2nc(NC(=O)c3ccc(NC(=O)c4cc(NC(=O)c5cc6ccccc6cn5)cn4C)cc3)cn2C)CC1 ?
Response: 2

Request: Also Cn1cc(NC(=O)c2cc3ccccc3cn2)cc1C(=O)Nc1ccc(C(=O)Nc2cn(C)c(C(=O)NCCN3CCC(O)CC3)n2)cc1 ?
Response: 5
